Cited source for all entries: patent US10457710B2

tested on: clinical strains of E. cloacae; assay: MIC, microdilution, clinical strains; assay type: cell-based; conditions: Enterobacter cloacae strain 2, Muller Hinton broth-cation adjusted, 0.02% BSA, 0.2% acetic acid
Where a SMILES comes first, the peptide text is derived from it. [ ]: non-standard residue; d: D form.
Metric name: Minimum inhibitory concentration

Compound: CC[C@@H](C)[C@@H](NC(=O)[C@@H](Cc1c[nH]c2ccccc12)NC(=O)[C@H](N)CCCCN)C(=O)N[C@@H](C(=O)N[C@H](Cc1c[nH]c2ccccc12)C(=O)N[C@H](CCCNC(=N)N)C(=O)N[C@H](Cc1c[nH]c2ccccc12)C(=O)N[C@H](CCCNC(=N)N)C(=O)N[C@H](Cc1ccccc1)C(=O)N[C@H](CCCCN)C(=O)N[C@H](CCCNC(=N)N)C(=O)O)C(C)C [Chain201D] (H-[dK][dW][dI][dV][dW][dR][dW][dR][dF][dK][dR]-OH)
Experimental result: 2

Compound: CC[C@@H](C)[C@@H](NC(=O)[C@@H](CC(C)C)NC(=O)[C@@H](CCCNC(=N)N)NC(=O)[C@H](N)CCCNC(=N)N)C(=O)N[C@H](Cc1c[nH]c2ccccc12)C(=O)N[C@H](CCCNC(=N)N)C(=O)N[C@H](CCCNC(=N)N)C(=O)N[C@H](Cc1ccccc1)C(=O)N[C@H](CCCCN)C(=O)N[C@H](Cc1c[nH]c2ccccc12)C(=O)N[C@H](CC(C)C)C(=O)N[C@H](CCCNC(=N)N)C(=O)O [Chain204D] (H-[dR][dR][dL][dI][dW][dR][dR][dF][dK][dW][dL][dR]-OH)
Experimental result: 8
